Target: EcDsbA (Escherichia coli, UniProt P0AEG4)
Construct: made in house; protein recovered from the periplasm of the expressing cells
Sequence (P0AEG4 20-208): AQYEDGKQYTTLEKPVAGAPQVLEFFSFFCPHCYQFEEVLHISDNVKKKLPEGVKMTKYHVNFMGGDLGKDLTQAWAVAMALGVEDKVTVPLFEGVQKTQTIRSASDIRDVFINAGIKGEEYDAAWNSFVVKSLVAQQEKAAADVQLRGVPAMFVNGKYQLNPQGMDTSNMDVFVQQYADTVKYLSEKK
Experiment: CPMG ligand-detected NMR binding
Conditions: compound 500 µM, unlabelled EcDsbA 10 µM, 298 K, spin-lock 350 ms
Recorded Endpoint: CPMG

// solved cases for CPMG follow
> print(dat)
                                   compound                     target.or.test.system  recorded.endpoint  recorded.value
1           O=C(O)Cc1coc2cc(Cc3ccccc3)ccc12  EcDsbA (Escherichia coli, UniProt P0AEG4)               CPMG            Pass
2          O=C(O)Cc1coc2cc(OCc3ccccc3)ccc12  EcDsbA (Escherichia coli, UniProt P0AEG4)               CPMG            Pass
3  COc1ccc(CC(=O)NC(C(=O)O)c2coc3cc(Br)ccc23)cc1 (stereo not drawn)  EcDsbA (Escherichia coli, UniProt P0AEG4)               CPMG            Fail
4           O=C(O)Cc1coc2cc(Oc3ccccc3)ccc12  EcDsbA (Escherichia coli, UniProt P0AEG4)               CPMG            Pass
5       COc1cccc(Oc2ccc3c(CC(=O)O)coc3c2)c1  EcDsbA (Escherichia coli, UniProt P0AEG4)               CPMG            Pass

(Q) Bench note: what CPMG did COc1ccc(Nc2ccc3c(CC(=O)O)coc3c2)cc1 show?
(A) Pass

(Q) Record: O=C(NC(C(=O)O)c1coc2cc(Br)ccc12)c1ccccc1 (stereo not drawn)
(A) Fail

(Q) Record: CCCCOc1ccc2c(CC(=O)O)coc2c1
(A) Pass

(Q) Record: CC(C)COc1ccc2c(CC(=O)O)coc2c1
(A) Pass

The values you see were collected from paper PMC6832960.
